tested on: FAP-expressing HEK293T:hFAP tumor xenografts; assay: Ex vivo biodistribution in HEK293T:hFAP tumor-bearing mice; settings: 1 h post injection, mean ± SD, n = 4
property-measured: Salivary glands uptake

I looked up N#C[C@@H]1CC(F)(F)CN1C(=O)CNC(=O)c1ccnc2ccc(OCCCc3cn(CC(=O)N[C@@H](CCCCNC(=O)CN4CCN(CC(=O)[O-])CCN(CC(=O)[O-])CCN(CC(=O)[O-])CC4)C(=O)NCC(=O)NC[C@H]4CC[C@H](C(=O)N[C@@H](Cc5c6ccccc6cc6ccccc56)C(=O)NCCCC[C@H](NC(=O)N[C@@H](CCC(=O)O)C(=O)O)C(=O)O)CC4)nn3)cc12.[68Ga+3] [[^68Ga]Ga-AV01017] and its Salivary glands uptake for FAP-expressing HEK293T:hFAP tumor xenografts was 6.43 ± 1.03 %ID/g
